Ref: patent US9096591B2

- TARGET_UNDER_TEST: human recombinant adrenergic α1D receptor (Homo sapiens)
- Construct: expressed in transfected cells; host or cells: HEK-293 cells
- Sequence (P25100 whole entry): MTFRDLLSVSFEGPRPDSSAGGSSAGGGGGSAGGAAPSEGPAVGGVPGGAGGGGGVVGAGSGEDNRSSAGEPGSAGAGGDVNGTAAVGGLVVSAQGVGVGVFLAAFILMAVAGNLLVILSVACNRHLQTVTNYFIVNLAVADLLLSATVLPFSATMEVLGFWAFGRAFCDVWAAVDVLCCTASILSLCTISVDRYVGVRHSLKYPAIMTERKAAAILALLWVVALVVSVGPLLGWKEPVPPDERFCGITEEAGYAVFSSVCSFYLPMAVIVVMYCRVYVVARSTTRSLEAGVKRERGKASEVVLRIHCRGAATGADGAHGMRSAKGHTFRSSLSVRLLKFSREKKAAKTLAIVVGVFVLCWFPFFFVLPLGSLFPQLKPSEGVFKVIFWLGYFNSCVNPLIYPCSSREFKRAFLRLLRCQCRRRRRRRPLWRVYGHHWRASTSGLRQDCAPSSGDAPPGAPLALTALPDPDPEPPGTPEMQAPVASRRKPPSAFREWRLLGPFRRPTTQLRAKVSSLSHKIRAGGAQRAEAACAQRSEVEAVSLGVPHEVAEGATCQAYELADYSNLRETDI
- EXPERIMENTAL_DETAILS: Adrenergic α1D radioligand binding ([3H]Prozosin)
- Set-up: concentration or dose not given beside the values
- CONDITION_DESCRIPTION: percent inhibition of specific binding
Binary call on Inhibition of ligand binding, Adren. alpha1D: 1 (yes) from 30% upward, 0 (no) beneath that.

- MOLECULE: "CC(Cn1c2c(c3ccccc31)CN(C)CC2)c1ccc(F)cc1 (stereo not shown) [Compound 455]"
  CATEGORY: "1 (yes)"
- MOLECULE: "CN1CCc2c(c3ccccc3n2CCc2ccccn2)C1 [Compound 329]"
  CATEGORY: "0 (no)"
- MOLECULE: "CN1CCc2c(c3cc(Cl)ccc3n2CCc2ccc(F)cc2)C1 [Compound 162]"
  CATEGORY: "1 (yes)"
- MOLECULE: "CC(C)N1CCN(C(=O)Cn2c3c(c4cc(Cl)ccc42)CN(C)CC3)CC1 [Compound 248]"
  CATEGORY: "0 (no)"
- MOLECULE: "Cc1ccc2c(c1)c1c(n2CCc2ccc(OC(C)(C)C)cc2)CCN(C)C1 [Compound 335]"
  CATEGORY: "1 (yes)"
- MOLECULE: "Cc1ccc2c(c1)c1c(n2CC(=O)N2Cc3ccccc3C2)CCN(C)C1 [Compound 397]"
  CATEGORY: "0 (no)"
- MOLECULE: "Cc1ccc2c(c1)c1c(n2CC(=O)N2CCOCC2)CCN(C)C1 [Compound 330]"
  CATEGORY: "0 (no)"
- MOLECULE: "Cc1ccc2c(c1)c1c(n2CC(=O)N2CCN(C)CC2)CCN(C)C1 [Compound 459]"
  CATEGORY: "0 (no)"
- MOLECULE: "CCOC(=O)N1CCc2c(c3cc(C)ccc3n2CCc2ccccc2)C1 [Compound 24]"
  CATEGORY: "0 (no)"
- MOLECULE: "CCOC(=O)N1CCc2c(c3cc(-c4cccnc4)ccc3n2CCc2ccc(C)nc2)C1 [Compound 19]"
  CATEGORY: "0 (no)"
- MOLECULE: "Cc1ccc2c(c1)c1c(n2CC(=O)N2CCCC(C)C2)CCN(C)C1 (stereo not shown) [Compound 401]"
  CATEGORY: "0 (no)"
- MOLECULE: "CN1CCN(CCn2c3c(c4cc(Cl)ccc42)CN(C)CC3)CC1 [Compound 417]"
  CATEGORY: "0 (no)"
- MOLECULE: "Cc1ccc2c(c1)c1c(n2CCc2ccccc2)CCN(C)C1 [Compound 20]"
  CATEGORY: "1 (yes)"
- MOLECULE: "Cc1ccc2c(c1)c1c(n2CCc2ccncc2)CCN(C)C1 [Compound 22]"
  CATEGORY: "1 (yes)"
- MOLECULE: "Cc1ccc2c(c1)c1c(n2CCc2ccc(C(F)(F)F)nc2)CCN(C)C1 [Compound 68]"
  CATEGORY: "1 (yes)"
- MOLECULE: "CN1CCc2c(c3cc(Cl)ccc3n2CCN2CCCCC2)C1 [Compound 189]"
  CATEGORY: "0 (no)"
- MOLECULE: "Cc1ccc2c(c1)c1c(n2CCC(=O)N2CCC(NC(=O)OC(C)(C)C)CC2)CCN(C)C1 [Compound 393]"
  CATEGORY: "0 (no)"
- MOLECULE: "Cc1cncc(CCn2c3c(c4cc(C)ccc42)CN(C)CC3)c1 [Compound 429]"
  CATEGORY: "1 (yes)"
- MOLECULE: "CC1CCCCN1C(=O)Cn1c2c(c3cc(Cl)ccc31)CN(C)CC2 (stereo not shown) [Compound 321]"
  CATEGORY: "0 (no)"
